tested on: Septoria tritici; assay: Test D: wheat seedlings sprayed, next day inoculated with Septoria tritici (wheat leaf blotch), visual disease rating; format: in vivo; conditions: 200 ppm test suspension, sprayed day before inoculation
MEASURED_ATTRIBUTE: Test D rating (disease control) (%)
The answer is to be given in %; state only the numeric part.

COc1cc(OC)c(Cl)c(-c2c(C)nnc(Cl)c2-c2c(F)cccc2Cl)c1 100
COc1cc(OC)cc(-c2c(C)nnc(F)c2-c2ccc(F)cc2F)c1 100
COc1cc(OC)cc(-c2c(C)nnc(Cl)c2-c2ccc(F)cc2F)c1 99
COc1cc(OC)cc(-c2c(CC#N)nnc(C)c2-c2c(F)cccc2F)c1 100
COc1cc(-c2c(C)nnc(Cl)c2-c2ccc(F)cc2F)cc(OC)c1Cl 100
COc1cc(OC)cc(-c2c(C)nnc(C)c2-c2ccc(F)cc2F)c1 100

// Test D rating (disease control) lookup, key: `COc1cc(OC)cc(-c2c(Cl)nnc(C)c2-c2ccc(F)cc2F)c1`
97

// Test D rating (disease control) lookup, key: `COc1cc(OC)cc(-c2c(C(C)C)nnc(Cl)c2-c2c(F)cc(F)cc2F)c1`
99

* * *

tested on: Erysiphe graminis; assay: Test F: wheat seedlings sprayed, next day inoculated with Erysiphe graminis (wheat powdery mildew), visual disease rating; format: in vivo; details: 200 ppm test suspension, sprayed day before inoculation
MEASURED_ATTRIBUTE: Test F rating (disease control)

COc1cc(OC)c(Cl)c(-c2c(C)nnc(F)c2-c2c(F)cccc2F)c1 100%
COc1cc(-c2c(C)nnc(C)c2-c2ccc(F)cc2F)cc(OC)c1Cl 100%
COc1cc(OC)cc(-c2c(C(C)C)nnc(C)c2-c2c(F)cc(F)cc2F)c1 100%
COc1cc(OC)cc(-c2c(Cl)nnc(C)c2-c2ccc(F)cc2)c1 39%

Here is the next item to consider.
// Test F rating (disease control) lookup, key: `COc1cc(OC)c(Cl)c(-c2c(C)nnc(F)c2-c2ccc(F)cc2F)c1`
99%

* * *

test system: Erysiphe graminis; test: Test F: wheat seedlings sprayed, next day inoculated with Erysiphe graminis (wheat powdery mildew), visual disease rating; format: in vivo; details: 200 ppm test suspension, sprayed day before inoculation
MEASURED_ATTRIBUTE: Test F rating (disease control) (%)
The answer is to be given in %; state only the numeric part.

Sample records with Test F rating (disease control):
COc1cc(OC)cc(-c2c(C)nnc(Cl)c2-c2ccc(F)cc2F)c1 89
COc1cc(OC)c(Cl)c(-c2c(C)nnc(Cl)c2-c2ccc(F)cc2F)c1 100
COc1cc(OC)c(Cl)c(-c2c(C)nnc(Cl)c2-c2ccc(F)cc2Cl)c1 100

// Test F rating (disease control) lookup, key: `COc1cc(OC)cc(-c2c(C)nnc(C)c2-c2c(F)cccc2F)c1`
98

// Test F rating (disease control) lookup, key: `COc1cc(OC)cc(-c2c(C)nnc(C)c2-c2ccc(F)cc2Cl)c1`
99

// Test F rating (disease control) lookup, key: `COc1cc(OC)cc(-c2c(C)nnc(Cl)c2-c2ccc(F)cc2Cl)c1`
97

// Test F rating (disease control) lookup, key: `COc1cc(OC)c(Cl)c(-c2c(C)nnc(Cl)c2-c2c(F)cccc2Cl)c1Cl`
42

// Test F rating (disease control) lookup, key: `COc1cc(OC)cc(-c2c(C)nnc(Cl)c2-c2c(F)cccc2Cl)c1`
100

// Test F rating (disease control) lookup, key: `COc1cc(OC)c(Cl)c(-c2c(C)nnc(C)c2-c2ccc(F)cc2F)c1`
100

* * *

Tested on: Erysiphe graminis
Test: Test F: wheat seedlings sprayed, next day inoculated with Erysiphe graminis (wheat powdery mildew), visual disease rating
Assay type: in vivo
Details: 200 ppm test suspension, sprayed day before inoculation
Text: General protocol for preparing test suspensions for Tests A-F: the test compounds were first dissolved in acetone in an amount equal to 3% of the final volume and then suspended at the desired concentration (in ppm) in acetone and purified water (50/50 mix) containing 250 ppm of the surfactant Trem® 014 (polyhydric alcohol esters). […]
Below is a list of entries, each paired with its recorded Test F rating (disease control) value.
The answer is to be given in %; state only the numeric part.

Sample records with Test F rating (disease control):
COMPOUND	READOUT_VALUE
COc1cc(OC)cc(-c2c(C(C)C)nnc(Cl)c2-c2c(F)cc(F)cc2F)c1 [Compound 16]	100
COc1ccc(-c2c(C)nnc(C(C)=O)c2-c2cc(OC)cc(OC)c2)cc1 [Compound 14]	84
COc1cc(OC)cc(-c2c(C)nnc(C)c2-c2c(F)cccc2Cl)c1 [Compound 39]	98
COc1ccc(-c2c(C)nnc(Cl)c2-c2cc(OC)cc(OC)c2)cc1 [Compound 2]	26

Here is the next item to consider.
// Test F rating (disease control) lookup, key: COc1cc(-c2c(C)nnc(Cl)c2-c2ccc(F)cc2F)cc(OC)c1Cl [Compound 45]
100
